Could you please report measured viability, T/C for the items listed next?
system: 857933-349-R-J2-PDC complex spheroids, viability; assay: Anticancer human tumor 857933-349-R-J2-PDC patient-derived colon adenocarcinoma cell line growth inhibition [GQUAD]; conditions: second compound 0.0316 µM; first compound 0.316 µM; stronger effect = lower value
Numbers only, in %.

CCCS(=O)(=O)Nc1ccc(F)c(C(=O)c2c[nH]c3ncc(-c4ccc(Cl)cc4)cc23)c1F + CN(C)c1ccc(Nc2c3ccc(NC(=O)CCN4CCCC4)cc3nc3cc(NC(=O)CCN4CCCC4)ccc23)cc1 : 102
Cc1[nH]c2ccccc2c1CCNCc1ccc(/C=C/C(=O)NO)cc1 + CN(C)c1ccc(Nc2c3ccc(NC(=O)CCN4CCCC4)cc3nc3cc(NC(=O)CCN4CCCC4)ccc23)cc1 : 60.2
CC(=O)O[C@H]1C(=O)[C@@]2(C)[C@H]([C@H](OC(=O)c3ccccc3)[C@]3(O)C[C@H](OC(=O)[C@H](O)[C@@H](NC(=O)c4ccccc4)c4ccccc4)C(C)=C1C3(C)C)[C@]1(OC(C)=O)CO[C@@H]1C[C@@H]2O + CN(C)c1ccc(Nc2c3ccc(NC(=O)CCN4CCCC4)cc3nc3cc(NC(=O)CCN4CCCC4)ccc23)cc1 : 22.3
CCCS(=O)(=O)Nc1ccc(F)c(C(=O)c2c[nH]c3ncc(-c4ccc(Cl)cc4)cc23)c1F + Cc1[nH]c2ccc(F)cc2c1-c1nc2c3cccnc3c3ncccc3c2[nH]1 : 94.7

Could you report viability, T/C for every entry in the following list?
1. C=CC(=O)N1CCN(c2nc(=O)n(-c3c(C)ccnc3C(C)C)c3nc(-c4c(O)cccc4F)c(F)cc23)C(C)C1 (stereo not given) + CN(C)c1ccc(Nc2c3ccc(NC(=O)CCN4CCCC4)cc3nc3cc(NC(=O)CCN4CCCC4)ccc23)cc1
2. CCc1c2c(nc3ccc(O)cc13)-c1cc3c(c(=O)n1C2)COC(=O)[C@]3(O)CC + CN(C)c1ccc(Nc2c3ccc(NC(=O)CCN4CCCC4)cc3nc3cc(NC(=O)CCN4CCCC4)ccc23)cc1
3. O=C(NO)c1cnc(N2CCN(S(=O)(=O)c3ccc4ccccc4c3)CC2)nc1 + Cc1cnc(CNC(=O)c2c(=O)c3ccc(N4CCCN(C)CC4)nc3n3c2sc2ccccc23)cn1
4. Cc1[nH]c2ccccc2c1CCNCc1ccc(/C=C/C(=O)NO)cc1 + Cc1cnc(CNC(=O)c2c(=O)c3ccc(N4CCCN(C)CC4)nc3n3c2sc2ccccc23)cn1

-- reply
1. 108
2. 5.95
3. 79.5
4. 42.5

Could you report viability, T/C for every entry in the following list?
1. O=c1[nH]cc(F)c(=O)[nH]1 + Cc1cnc(CNC(=O)c2c(=O)c3ccc(N4CCCN(C)CC4)nc3n3c2sc2ccccc23)cn1
2. Cn1ncnc1[C@H]1c2n[nH]c(=O)c3cc(F)cc(c23)N[C@@H]1c1ccc(F)cc1 + Cc1[nH]c2ccc(F)cc2c1-c1nc2c3cccnc3c3ncccc3c2[nH]1

-- reply
[87.3, 109]

* * *

test system: 857933-349-R-J2-PDC complex spheroids, viability; assay: Anticancer human tumor 857933-349-R-J2-PDC cell line growth inhibition [GQUAD]; conditions: second compound 0.0316 µM; first compound 0.316 µM; stronger effect = lower value;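 further: spheroids exposed to compounds for one week before readout; percent viability relative to vehicle DMSO wells taken as 100%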
observed.property: viability, T/C (%)
Give bare numbers, in %.

Example results:
Cn1ncnc1[C@H]1c2n[nH]c(=O)c3cc(F)cc(c23)N[C@@H]1c1ccc(F)cc1 + CN(C)c1ccc(Nc2c3ccc(NC(=O)CCN4CCCC4)cc3nc3cc(NC(=O)CCN4CCCC4)ccc23)cc1 : 102
CC1COCCN1c1cc(C2(O)CC3CCC(C2)O3)c2cnn(-c3ccn[nH]3)c2n1 (stereo not given) + Cc1[nH]c2ccc(F)cc2c1-c1nc2c3cccnc3c3ncccc3c2[nH]1 : 49.6
C#Cc1c(F)ccc2cc(O)cc(-c3ncc4c(N5CC6CCC(C5)N6)nc(OCC56CCCN5CC(F)C6)nc4c3F)c12 (stereo not given) + Cc1cnc(CNC(=O)c2c(=O)c3ccc(N4CCCN(C)CC4)nc3n3c2sc2ccccc23)cn1 : 72.6
CC(C)n1c(=O)n(C)c2cnc3cc(F)c(-c4ccc(OCCCN5CCCCC5)nc4)cc3c21 + Cc1[nH]c2ccc(F)cc2c1-c1nc2c3cccnc3c3ncccc3c2[nH]1 : 107

-- ask Look up and report measured viability, T/C for this entry: C#Cc1c(F)ccc2cc(O)cc(-c3ncc4c(N5CC6CCC(C5)N6)nc(OCC56CCCN5CC(F)C6)nc4c3F)c12 (stereo not given) + Cc1[nH]c2ccc(F)cc2c1-c1nc2c3cccnc3c3ncccc3c2[nH]1
-- reply 91.9
